# Target system: human ether-à-go-go-related gene (hERG) potassium channel (human)
# Test name: primary screen, population patch clamp on CHO cells stably expressing hERG; higher = less effect of the substance
In all, about 310,000 compounds went through this assay and about 14,000 (4.5%) showed an effect of 50% or more. The effect is printed as a negative number. The sample holds strong results, similar compounds and a random draw of the others, so the mix is not that of the screen.
Quantity: hERG current change (%, negative = inhibition) at 10uM

CCc1nc(SCC(=O)NCCc2ccccc2)n[nH]1
-3.42%
COc1ccc(SCC(=O)Nc2ccc(N3CCN(C)CC3)c(F)c2)cc1
-49.7%

What value of hERG current change (%, negative = inhibition) at 10uM has been recorded for this entry: Cc1occc1C(=O)NNC(=O)c1nn(C)c(=O)c2ccccc12
8.46%

Next: Cn1nc(C(=O)NNC(=O)CCc2ccccc2Cl)c2ccccc2c1=O
-53.9%

Next: CN1CCN(c2ccc(NC(=O)CSc3ccccc3)cc2F)CC1
-68.4%

---

Overview of reported hERG current change (%, negative = inhibition) at 10uM across a group of molecules:
# Target system: human ether-à-go-go-related gene (hERG) potassium channel (human)
# Test name: primary screen, population patch clamp on CHO cells stably expressing hERG; higher = less effect of the substance
Out of some 310,000 compounds screened, about 14,000 (4.5%) showed an effect of 50% or more. Effects have a minus sign here. This is one part of a sample in which strong results are shown more often than they occur.
Just the number please, in %, no unit attached.

Cc1cc(C)nc(-n2nc(C)c(C3(O)C(=O)Nc4ccc(F)cc43)c2N)n1 (centres unmarked)
3.79
Cc1nn(-c2ccccc2)c(N)c1Sc1ccc([N+](=O)[O-])cc1
-75.2
COc1ccccc1CNC(=O)c1ccc(N(C)S(=O)(=O)c2ccc(C)cc2)cc1
17.5
O=C(CCc1nnc(CCCCc2ccccc2)o1)N1CCN(CCO)CC1
-0.0459

Next item in the queue.
What value of hERG current change (%, negative = inhibition) at 10uM has been recorded for this entry: Cc1cc(C)nc(-n2nc(C)c(Sc3ccc(F)cc3)c2N)n1
-61.7

---

Overview of reported hERG current change (%, negative = inhibition) at 10uM across a group of compounds:
# Target system: human ether-à-go-go-related gene (hERG) potassium channel (human, UniProt Q12809)
# Sequence (Q12809 whole entry, looked up): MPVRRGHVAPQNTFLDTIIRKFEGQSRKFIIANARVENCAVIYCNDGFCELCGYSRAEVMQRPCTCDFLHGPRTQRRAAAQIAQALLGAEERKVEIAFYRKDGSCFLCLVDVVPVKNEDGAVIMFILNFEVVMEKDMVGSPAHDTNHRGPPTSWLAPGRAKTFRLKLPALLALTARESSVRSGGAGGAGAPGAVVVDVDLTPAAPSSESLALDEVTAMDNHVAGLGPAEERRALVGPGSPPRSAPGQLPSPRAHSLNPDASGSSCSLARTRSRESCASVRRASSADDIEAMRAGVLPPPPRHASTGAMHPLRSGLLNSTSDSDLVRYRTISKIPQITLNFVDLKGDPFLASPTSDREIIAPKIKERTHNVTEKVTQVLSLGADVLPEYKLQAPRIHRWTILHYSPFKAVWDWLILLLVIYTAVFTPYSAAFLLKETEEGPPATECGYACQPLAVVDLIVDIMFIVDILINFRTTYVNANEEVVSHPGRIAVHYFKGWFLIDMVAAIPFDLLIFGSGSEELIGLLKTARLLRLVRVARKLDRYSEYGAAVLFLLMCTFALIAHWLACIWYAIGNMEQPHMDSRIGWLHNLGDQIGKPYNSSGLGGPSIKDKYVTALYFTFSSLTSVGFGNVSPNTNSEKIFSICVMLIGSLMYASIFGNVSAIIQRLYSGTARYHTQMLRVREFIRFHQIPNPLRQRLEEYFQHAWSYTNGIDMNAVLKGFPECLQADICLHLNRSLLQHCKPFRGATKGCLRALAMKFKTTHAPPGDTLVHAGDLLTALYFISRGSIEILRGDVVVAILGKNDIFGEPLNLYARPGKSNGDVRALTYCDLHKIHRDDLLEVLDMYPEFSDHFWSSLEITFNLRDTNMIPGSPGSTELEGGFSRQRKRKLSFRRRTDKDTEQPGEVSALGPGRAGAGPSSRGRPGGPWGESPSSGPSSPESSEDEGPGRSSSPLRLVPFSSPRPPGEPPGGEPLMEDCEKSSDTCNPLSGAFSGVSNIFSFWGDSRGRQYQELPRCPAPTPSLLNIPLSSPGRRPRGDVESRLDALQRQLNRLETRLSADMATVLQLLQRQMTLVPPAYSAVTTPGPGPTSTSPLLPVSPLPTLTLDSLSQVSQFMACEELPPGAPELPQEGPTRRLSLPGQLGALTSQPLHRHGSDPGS
# Test name: primary screen, population patch clamp on CHO cells stably expressing hERG; higher = less effect of the substance
About 14,000 (4.5%) of roughly 310,000 compounds showed an effect of 50% or more. Effects have a minus sign here. What follows is part of a selection rich in strong results, with near analogues and random picks from the rest.
Just the number please, in %, no unit attached.

Recorded results for 4 compounds are shown here.
Cc1nn(Cc2c(Cl)cccc2Cl)c(C)c1NC(=O)/C=C/c1cnn(C)c1C
8.85
Nc1nc2ccccc2cc1S(=O)(=O)c1ccccc1
16
COc1cccc(=O)c2c(C)n(C)c(C)c12
-24.7
Cc1ccc2cccc(S(=O)(=O)NC3CCS(=O)(=O)C3)c2n1 (centres unmarked)
-7.02

Next item in the queue.
What value of hERG current change (%, negative = inhibition) at 10uM has been recorded for this entry: COc1ccc(-c2csc3nc(-c4ccccc4F)oc(=O)c23)cc1OC
-3.61

---

# Target system: human ether-à-go-go-related gene (hERG) potassium channel (human, UniProt Q12809);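 also: peak tail current of the secondary pulse compared with the same well before compound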
# Test name: primary screen, population patch clamp on CHO cells stably expressing hERG; higher = less effect of the substance
Hit rate of the full screen: of about 310,000 compounds, about 14,000 (4.5%) showed an effect of 50% or more. The effect is printed as a negative number. Only a selection was taken, and strong results are over-represented in it overall.
Quantity: hERG current change (%, negative = inhibition) at 10uM
State the result as a value with its unit after it.

Recorded results for 6 molecules are shown here.
COC(=O)C1=C(C(=O)OC)[C@@H]2N(C)c3ccc(OC)cc3[C@@]23C[C@@H](C(=O)OC)N(C(=O)c2ccco2)C3=N1
-50.6%
Cl.O=C(COc1ccccc1Cc1ccccc1)NCCCN1CCOCC1
-32.1%
O=C(Cc1ccccn1)c1ccc(O)cc1O
21.5%
COc1ccc(NC(=O)/C(N=Nc2cc(S(=O)(=O)Nc3ccc(OC)cc3)ccc2OC)=C(\C)O)cc1
24.2%
COc1ccc(N2CCN(C(=O)c3ccc4c(c3)CCN4S(=O)(=O)c3ccccc3)CC2)cc1
-23.2%
COc1ccccc1OCc1cc(C(=O)N2CCN(C)C(c3ccccc3)C2)no1 (centres unmarked)
-61.1%

What value of hERG current change (%, negative = inhibition) at 10uM has been recorded for this entry: CCN1CCN(c2ccc(S(=O)(=O)N3CCOCC3)cc2NC(=O)/C=C/c2ccc([N+](=O)[O-])cc2)CC1
-71.8%

Next: Cc1onc(-c2ccccc2Cl)c1-c1nc(-c2ccncc2)no1
-10.9%

Next: O=C(N1CCOCC1)N(Cc1ccco1)CC1CCCO1 (centres unmarked)
-48.5%

Next: CSc1ccccc1OCc1cc(C(=O)N2CCCC(C)C2)no1 (centres unmarked)
-0.622%

Next: COc1ccc(C(=O)Nc2cccc3ccccc23)cc1
1.02%

Next: CCN1CCN(c2ccc(S(=O)(=O)N3CCOCC3)cc2NC(=O)/C=C/c2ccc(OC)c(OC)c2)CC1
10.4%

Next: O=C(NCC1CCCO1)c1ccccc1NS(=O)(=O)c1cccs1 (centres unmarked)
-5.56%

Next: Cc1cccc2c3c([nH]c12)CCN(C)C3
10%

Next: CC(C)(CNC(=O)COc1ccccc1Cc1ccccc1)N1CCOCC1
-55.6%

Next: COCC1CCN(C(=O)c2cc(COc3ccccc3SC)on2)C1 (centres unmarked)
-33.9%

Next: CCc1nc(NCCN2CCOCC2)c(C#N)c2c1CCCC2
-37.2%

Next: CCC1(c2ccc(F)cc2)NC(=O)N(CC(=O)N2c3ccccc3NC(=O)CC2C)C1=O (centres unmarked)
-58.4%

Next: O=C(NCc1ccco1)C(=O)NCC(c1ccco1)N1CCOCC1 (centres unmarked)
13%

Next: CCN1CCN(c2ccc(S(=O)(=O)N3CCCCC3)cc2NC(=O)/C=C/c2ccc([N+](=O)[O-])cc2)CC1
-70.8%

---

# Target system: human ether-à-go-go-related gene (hERG) potassium channel (human, UniProt Q12809);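 also: peak tail current of the secondary pulse compared with the same well before compound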
# Test name: primary screen, population patch clamp on CHO cells stably expressing hERG; higher = less effect of the substance
Among all 310,000 compounds or so, about 14,000 (4.5%) showed an effect of 50% or more. The effect is printed as a negative number. For the sample, strong results were picked, then their nearest neighbours and some compounds at random.
Mark 1 for reported hERG current change (%, negative = inhibition) at 10uM of -10% or greater; mark 0 for anything smaller.

Cc1cc(NC(=O)c2cnn3cccnc23)no1
1
CC(=O)NC12CC3CC(C1)CC(C(=O)Nc1nccs1)(C3)C2
1
COC(=O)N/N=C/c1ccccc1Cl
1

Is the recorded value of hERG current change (%, negative = inhibition) at 10uM equal to or greater than -10% for this compound? Cc1cccc(Nc2nn3c(=O)c4ccccc4nc3s2)c1
1

Next: CCOC(=O)c1cccc(NC(=O)c2cc(C)nn2-c2ccccc2)c1
0

Next: CC(C)[C@@H](N)C(=O)N/N=C/c1ccc2nccnc2c1.Cl
1

Next: Cc1cc(C(=O)Nc2c(F)cc(F)cc2Br)n(-c2ccccc2)n1
1

Next: C=CCn1c(O)c(C(C)=NCc2cc(OC)cc(OC)c2)c(=O)[nH]c1=O
0

Next: Cc1noc(C)c1C(=O)NCCc1ccc(S(N)(=O)=O)cc1
0

Next: CCCCn1c(O)c(C(CC)=NCc2cc(OC)cc(OC)c2)c(=O)[nH]c1=O
0

Next: C=CCn1c(O)c(C(CC)=NCc2cc(OC)cc(OC)c2)c(=O)[nH]c1=O
0

---

Overview of reported hERG current change (%, negative = inhibition) at 10uM across a group of compounds:
# Target system: human ether-à-go-go-related gene (hERG) potassium channel (human);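 also: peak tail current of the secondary pulse compared with the same well before compound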
# Test name: primary screen, population patch clamp on CHO cells stably expressing hERG; higher = less effect of the substance
About 14,000 (4.5%) of roughly 310,000 compounds showed an effect of 50% or more. The effect is printed as a negative number. This excerpt belongs to a sample that is enriched for strong results.
Just the number please, in %, no unit attached.

CCC(=O)NCCc1nc2cc(NC(=O)c3ccc(F)cc3)ccc2n1C
1.29
CCCC(=O)N1CCC(Cc2ccccc2)CC1
9.83
CCCCCCNCC(=O)N1CCC(Cc2ccccc2)CC1
-71.7
Cc1cc(OCC(=O)c2ccc(C(F)(F)F)cc2)n2cnnc2n1
5.8

Next item in the queue.
What value of hERG current change (%, negative = inhibition) at 10uM has been recorded for this entry: COc1ccc(NC(=S)NC(C)C(c2ccccc2)N2CCOCC2)cc1 (stereo not drawn)
7.52

---

# Target system: human ether-à-go-go-related gene (hERG) potassium channel (human);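 also: peak tail current of the secondary pulse compared with the same well before compound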
# Test name: primary screen, population patch clamp on CHO cells stably expressing hERG; higher = less effect of the substance
Among all 310,000 compounds or so, about 14,000 (4.5%) showed an effect of 50% or more. Effects have a minus sign here. This is one part of a sample in which strong results are shown more often than they occur.
Quantity: hERG current change (%, negative = inhibition) at 10uM (%)
Just the number please, in %, no unit attached.

What value of hERG current change (%, negative = inhibition) at 10uM has been recorded for this entry: COc1cc(/C=N/NC(=O)c2cccc(NC(=O)c3ccccc3C)c2)ccc1O
-48.4
